test-target: Metabotropic glutamate receptor 8 (Rattus norvegicus)
assay-method-text: mGluR8 Gi/Go-coupled signaling modulation – cell-based, rat, thallium flux, HTS, primary screen (AID 488969)
experimental-context: HEK293 rat mGluR8, GIRK thallium flux, FluoZin2; at 10 µM; stronger effect = higher value; submaximal glutamate (EC20) added with thallium
The full ranking holds about 110,000 compounds; the median of “z-score” is about -0.1, and the highest 2% start at about 2. The full list was thinned out, with the highest values kept by preference.
compounds and their reported z-score

// worked examples, z-score included
>  <compound>
CCc1ccc(-c2nc(-c3ccncc3)no2)cc1

>  <test-target>
Metabotropic glutamate receptor 8 (Rattus norvegicus)

>  <z-score>
2.31

$$$$
>  <compound>
COc1ccc(NC(=O)c2cc3ccccn3n2)cc1

>  <test-target>
Metabotropic glutamate receptor 8 (Rattus norvegicus)

>  <z-score>
-0.0979

$$$$
>  <compound>
CC(C)(C)c1ccc(-c2nc(-c3ccncc3)no2)cc1

>  <test-target>
Metabotropic glutamate receptor 8 (Rattus norvegicus)

>  <z-score>
-0.17

$$$$

Name the recorded z-score of the item `CC(C)CNC(=S)NNC(=O)c1csc2c1CCCC2` in your answer.
-0.116

Item `O=C(OCCN1C(=O)c2cccc3c(N4CCOCC4)ccc(c23)C1=O)c1ccc(Cl)cc1` : provide z-score
-0.758

Please report the measured z-score for `CCCc1nc(SCC(=O)N2CCN(c3ccccc3)CC2)c2c(=O)n(C)c(=O)n(C)c2n1`
2.39

Indicate the recorded z-score value for this compound: `CC1CCN(c2ccc(NC(=S)NC(=O)c3ccc(-c4cccc([N+](=O)[O-])c4)o3)cc2)CC1`
-0.0494

Supply reported z-score belonging to this compound: O=C(CSc1nc2ccccc2[nH]1)NC1CCCc2ccccc21 (stereo not drawn)
2.41

Note down z-score recorded for `COC(=O)c1cc2nc(-c3ccccc3)cc(C)n2n1`
0.0407

Give the reported z-score for this compound. `O=C(OCCN1C(=O)c2cccc3c(N4CCOCC4)ccc(c23)C1=O)c1ccc(Cl)cc1Cl`
-0.884

Name the recorded z-score of the item `C=CCn1c(N)c(C(=O)Nc2ccc(C)c(C)c2)c2nc3ccccc3nc21` in your answer.
0.661

State its z-score: `CCOc1ccc(-c2nc(-c3cccnc3)no2)cc1OCC`
0.841

Annotate the compound `CCN(CC)C(=O)N1c2ccccc2C=Cc2ccccc21` with its measured z-score.
-0.214

Identify measured z-score associated with `CCCc1nc(SCC(=O)c2ccccc2)c2c(=O)n(C)c(=O)n(C)c2n1`
0.819

Given `CCCN1CNC(=S)N(c2ccc(C(=O)OCC)cc2)C1` , respond with its z-score.
-2.04

---

Entries and their measured z-score follow.
test-target: Metabotropic glutamate receptor 8 (Rattus norvegicus) (UniProt P70579)
Sequence (P70579 whole entry, looked up): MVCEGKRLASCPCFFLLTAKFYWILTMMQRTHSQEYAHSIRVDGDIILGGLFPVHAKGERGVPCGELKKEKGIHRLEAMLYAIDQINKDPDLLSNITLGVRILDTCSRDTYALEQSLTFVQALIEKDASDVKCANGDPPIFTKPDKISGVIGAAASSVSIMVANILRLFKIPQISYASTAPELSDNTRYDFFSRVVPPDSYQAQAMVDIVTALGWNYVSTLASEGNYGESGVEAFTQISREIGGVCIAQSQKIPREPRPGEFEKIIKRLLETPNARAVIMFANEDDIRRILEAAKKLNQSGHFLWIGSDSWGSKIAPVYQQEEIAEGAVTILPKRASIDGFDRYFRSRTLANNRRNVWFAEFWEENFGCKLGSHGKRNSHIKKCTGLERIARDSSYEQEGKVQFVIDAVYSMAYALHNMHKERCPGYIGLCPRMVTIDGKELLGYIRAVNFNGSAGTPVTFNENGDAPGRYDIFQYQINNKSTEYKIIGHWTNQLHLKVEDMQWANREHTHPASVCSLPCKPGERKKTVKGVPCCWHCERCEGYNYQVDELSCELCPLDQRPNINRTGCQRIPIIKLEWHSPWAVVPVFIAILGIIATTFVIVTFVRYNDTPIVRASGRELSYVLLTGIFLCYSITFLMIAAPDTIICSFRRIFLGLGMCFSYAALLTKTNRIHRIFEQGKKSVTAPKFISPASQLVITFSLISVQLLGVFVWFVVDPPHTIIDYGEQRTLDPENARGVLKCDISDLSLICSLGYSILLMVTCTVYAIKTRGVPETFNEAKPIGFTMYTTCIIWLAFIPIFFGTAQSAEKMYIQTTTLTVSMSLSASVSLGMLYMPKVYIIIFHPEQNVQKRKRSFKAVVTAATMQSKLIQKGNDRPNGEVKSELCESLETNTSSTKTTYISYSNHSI
assay-method-text: mGluR8 Gi/Go-coupled signaling modulation – cell-based, rat, thallium flux, HTS, primary screen (AID 488969)
experimental-context: HEK293 rat mGluR8, GIRK thallium flux, FluoZin2; at 10 µM; stronger effect = higher value; submaximal glutamate (EC20) added with thallium
Over roughly 110,000 compounds, “z-score” has its median near -0.1; the highest 2% begin near 2. This excerpt belongs to a sample that is enriched for the highest values. Calls of active or inactive are those of the source.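 Rule for the calls: active = z-score in the third read window above 3 or below -3; inactive = the rest.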

Observe how each entry below is paired with its result.
>  <compound>
CCN1CCCC1CNC(=O)C(=O)Nc1ccc(OC)cc1 (stereo unspecified)

>  <z-score>
0.521

$$$$
>  <compound>
O=C(CN1C(=O)c2ccccc2C1=O)Nc1sc2c(c1C(=O)NCC1CCCO1)CCC2 (stereo unspecified)

>  <z-score>
4.33 (active)

$$$$

Give recorded z-score. CC(C(=O)Nc1sc2c(c1C(=O)NCC1CCCO1)CCC2)N1C(=O)c2ccccc2C1=O (stereo unspecified)
-1

Provide one value: measured z-score of `COc1ccc(/C=N/Nc2snc(SC)c2C#N)cc1OC`
0.407

Output z-score of CCC1CCCCN1C(=O)CSc1nnc(-c2ccco2)o1 (stereo unspecified)
11.1 (active)

Supply measured z-score of `Cn1c(O)c(C=NCC2CCNCC2)c(=O)n(C)c1=O` in your reply.
0.695

---

test-target: Metabotropic glutamate receptor 8 (Rattus norvegicus)
assay-method-text: mGluR8 Gi/Go-coupled signaling modulation – cell-based, rat, thallium flux, HTS, primary screen (AID 488969)
experimental-context: HEK293 rat mGluR8, GIRK thallium flux, FluoZin2; at 10 µM; stronger effect = higher value; submaximal glutamate (EC20) added with thallium
Whole data set: some 110,000 compounds, median “z-score” near -0.1, cut for the highest 2% near 2. The sample holds the highest values, similar compounds and a random draw of the others, so the mix is not that of the screen.
Where z-score equals or exceeds -0.2, the correct label is fulfilled; where it does not, the label is not fulfilled.

Some entries whose results are on file:
>  <compound>
CC(C)(C)c1cc(NC(=O)COC(=O)c2ccc3c(=O)n4c(nc3c2)CCC4)n(-c2ccccc2)n1

>  <class>
not fulfilled

$$$$
>  <compound>
O=C(Nc1ccc2nc3n(c(=O)c2c1)CCCC3)c1ccccc1[N+](=O)[O-]

>  <class>
not fulfilled

$$$$
>  <compound>
Cc1ccccc1C(=O)Nc1ccc2nc3n(c(=O)c2c1)CCC3

>  <class>
fulfilled

$$$$

Now look at this entry.
Identify whether the reported z-score of the following compound is -0.2 or greater: `O=C(c1cc2sccc2n1Cc1ccc(F)cc1)N1CCCc2ccccc21`
fulfilled

---

Reported z-score is given for each of the following compounds.
test-target: Metabotropic glutamate receptor 8 (Rattus norvegicus) (UniProt P70579)
assay-method-text: mGluR8 Gi/Go-coupled signaling modulation – cell-based, rat, thallium flux, HTS, primary screen (AID 488969)
experimental-context: HEK293 rat mGluR8, GIRK thallium flux, FluoZin2; at 10 µM; stronger effect = higher value; submaximal glutamate (EC20) added with thallium
Over roughly 110,000 compounds, “z-score” has its median near -0.1; the highest 2% begin near 2. The list comes from a sample in which the highest values are over-represented; it also holds close analogues and randomly drawn compounds.
Write no unit; give the number alone.

>  <compound>
CC(C)CC(C(=O)O)N(Cc1ccccc1)Cc1ccccc1 (stereo not drawn)

>  <measured-quantity>
z-score

>  <endpoint-value>
-0.132

$$$$

Specify measured z-score for `O=C(NCc1cccs1)c1cc2c(s1)-c1ccccc1OC2` .
-0.399

State its z-score for this compound: CC(=O)C1C(c2ccccc2)c2c(n[nH]c2C)CC1(C)O (stereo not drawn)
0.241

Determine its reported z-score: `Cc1ccc(-c2noc(CCC(=O)NCCN3CCOCC3)n2)cc1`
-0.472

Give recorded z-score. `Cc1ccc(S(=O)(=O)c2nc(C(C)(C)C)oc2N2CCOCC2)cc1`
-0.0758

---

test-target: Metabotropic glutamate receptor 8 (Rattus norvegicus) (UniProt P70579)
assay-method-text: mGluR8 Gi/Go-coupled signaling modulation – cell-based, rat, thallium flux, HTS, primary screen (AID 488969)
experimental-context: HEK293 rat mGluR8, GIRK (G protein-gated inwardly rectifying potassium channel) thallium flux, FluoZin2; at 10 µM; stronger effect = higher value; submaximal glutamate (EC20) added with thallium
Over roughly 110,000 compounds, “z-score” has its median near -0.1; the highest 2% begin near 2. Only a selection was taken, and the highest values are over-represented in it overall.
measured-quantity: z-score
Reply with just the number.

Before answering, review these 3 worked examples.
>  <molecule>
O=C(CSc1nnc(-c2ccccc2)n1-c1ccccc1)N1c2ccccc2Sc2ccccc21

>  <test-target>
Metabotropic glutamate receptor 8 (Rattus norvegicus) (UniProt P70579)

>  <measured-quantity>
z-score

>  <endpoint-value>
-1.52

$$$$
>  <molecule>
COc1ccc(C(=O)N(C(C)C)C(C)C)c(OC)c1

>  <test-target>
Metabotropic glutamate receptor 8 (Rattus norvegicus) (UniProt P70579)

>  <measured-quantity>
z-score

>  <endpoint-value>
0.14

$$$$
>  <molecule>
CS(=O)(=O)N(CC(=O)NCc1ccncc1)c1ccc(Cl)c(Cl)c1

>  <test-target>
Metabotropic glutamate receptor 8 (Rattus norvegicus) (UniProt P70579)

>  <measured-quantity>
z-score

>  <endpoint-value>
-0.214

$$$$

Please report the measured z-score for `CC(C)=C1SC(N2CCCCC2)=NC1=O`
1.93

Note down z-score recorded for `CCOC(=O)c1ccc(NC(=O)COC(=O)Cc2csc(-c3ccccc3)n2)cc1`
-0.252

In one line, give reported z-score of the entry Cc1ccc(OCC(=O)N2N=C(C(F)(F)F)CC2(O)C(C)(C)C)cc1C (stereo unspecified) .
3.56

Report z-score, nothing else, for this molecule: `Cc1ccc(Nc2c([N+](=O)[O-])cc(C(=O)N3CC(=O)Nc4ccccc43)cc2[N+](=O)[O-])c(C)c1`
-0.162

Read off the recorded z-score for `CCc1cccc(Nc2c([N+](=O)[O-])cc(C(=O)N3CC(=O)Nc4ccccc43)cc2[N+](=O)[O-])c1`
-1.1

In one line, give reported z-score of the entry `Cc1ccc(/C=C(\NC(=O)c2ccc(C)cc2)c2nc(=S)[nH][nH]2)cc1` .
0.31

Write down z-score measured for item `COc1ccccc1N1CCN(C(=O)c2ccc(CN3CCc4ccccc4C3)cc2)CC1`
-0.0526

Return the recorded z-score value; entry: `Nc1ccc(Cl)c(-c2nc3ncccc3o2)c1`
0.714

Supply reported z-score belonging to this molecule: Cc1ccc(OCC(=O)N2N=C(c3cccnc3)CC2(O)C(F)(F)F)cc1C (stereo unspecified)
-0.105

Determine from records and report z-score for `CCN(CC)S(=O)(=O)c1ccc(N2CCOCC2)c(NC(=O)Cc2ccc(Cl)cc2)c1`
0.141

Name the recorded z-score of the item `O=C(NCc1ccc(-c2nc3ccccc3s2)cc1)c1ccco1` in your answer.
-0.111

Answer with reported z-score of `Cc1cccc(NC(=O)CSc2nc3ccc(NC(=O)CSc4nnnn4-c4ccccc4)cc3s2)c1C`
0.181
